system: E. coli TESEC Mtb DapB; assay: growth (OD600 after 10 h); higher = more growth (less inhibition); settings: arabinose induction (level): Low; compound 0.1 mM; raw OD600 reference: median of DMSO wells 0.227, cell-free background 0.041
Counter-ions that a name gives are not always drawn.
Classify by measured growth: Condition met if it is equal to or exceeds 0.2, Condition not met if it is smaller.

Compound: CSc1ccc2c(c1)C(N1CCN(C)CC1)Cc1ccccc1S2 (configuration not stated) [Methiothepin maleate]
Study system: E. coli TESEC Mtb DapB
Class assignment: Condition not met
--
Compound: CCN(CC)CCNC(=O)c1cc(S(C)(=O)=O)ccc1OC [Tiapride hydrochloride]
Study system: E. coli TESEC Mtb DapB
Class assignment: Condition met
--
Compound: CN(C)CCC(c1ccc(Cl)cc1)c1ccccn1 (configuration not stated) [Chlorpheniramine maleate]
Study system: E. coli TESEC Mtb DapB
Class assignment: Condition met
--
Compound: CC(=O)O[C@@]12CO[C@@H]1C[C@H](O)[C@@]1(C)C(=O)[C@H](O)C3=C(C)[C@@H](OC(=O)[C@H](O)[C@@H](NC(=O)OC(C)(C)C)c4ccccc4)C[C@@](O)([C@@H](OC(=O)c4ccccc4)[C@H]21)C3(C)C
Study system: E. coli TESEC Mtb DapB
Class assignment: Condition met
--
Compound: O=C(C1CCCCC1)N1CC(=O)N2CCc3ccccc3C2C1 (configuration not stated)
Study system: E. coli TESEC Mtb DapB
Class assignment: Condition met
--
Compound: COc1ccccc1OCC(O)CN1CCN(CC(=O)Nc2c(C)cccc2C)CC1 (configuration not stated)
Study system: E. coli TESEC Mtb DapB
Class assignment: Condition met
--
Compound: COc1cc2nc(N(C)CCCNC(=O)C3CCCO3)nc(N)c2cc1OC (configuration not stated) [Alfuzosin hydrochloride]
Study system: E. coli TESEC Mtb DapB
Class assignment: Condition met
--
Compound: CCCCOc1ccc(OCCCN2CCOCC2)cc1 [Pramoxine hydrochloride]
Study system: E. coli TESEC Mtb DapB
Class assignment: Condition met
--
Compound: COc1cc(OC)c(C(=O)CCCN2CCCC2)c(OC)c1 [Buflomedil hydrochloride]
Study system: E. coli TESEC Mtb DapB
Class assignment: Condition not met
--
Compound: CCCOc1ccc2[nH]c(NC(=O)OC)nc2c1
Study system: E. coli TESEC Mtb DapB
Class assignment: Condition met
--
Compound: CCOC(=O)O[C@]1(C(=O)COC(=O)CC)CC[C@H]2[C@@H]3CCC4=CC(=O)C=C[C@]4(C)[C@H]3[C@@H](O)C[C@@]21C [Prednicarbate]
Study system: E. coli TESEC Mtb DapB
Class assignment: Condition met
--
Compound: CC(C)(O/N=C(\C(=O)N[C@@H]1C(=O)N2C(C(=O)[O-])=C(C[n+]3ccccc3)CS[C@H]12)c1csc(N)n1)C(=O)O [Ceftazidime pentahydrate]
Study system: E. coli TESEC Mtb DapB
Class assignment: Condition not met
--
Compound: CC(CN1c2ccccc2Sc2ccccc21)N(C)C (configuration not stated) [Promethazine hydrochloride]
Study system: E. coli TESEC Mtb DapB
Class assignment: Condition met
--
Compound: C[C@]12CC[C@@H]3c4ccc(O)cc4C[C@@H](CCCCCCCCC[S+]([O-])CCCC(F)(F)C(F)(F)F)[C@H]3[C@@H]1CC[C@@H]2O (some centres not stated)
Study system: E. coli TESEC Mtb DapB
Class assignment: Condition met
--
Compound: O=C(O)COC(=O)Cc1ccccc1Nc1c(Cl)cccc1Cl
Study system: E. coli TESEC Mtb DapB
Class assignment: Condition not met
--
Compound: CCCNC(C)C(=O)Nc1ccccc1C (configuration not stated) [Prilocaine hydrochloride]
Study system: E. coli TESEC Mtb DapB
Class assignment: Condition met
--
Compound: CC(C)NCC(O)c1ccc2ccccc2c1 (configuration not stated) [Pronethalol hydrochloride]
Study system: E. coli TESEC Mtb DapB
Class assignment: Condition met
--
Compound: Oc1c(Cl)cc(Cl)c(Cl)c1Cc1c(O)c(Cl)cc(Cl)c1Cl
Study system: E. coli TESEC Mtb DapB
Class assignment: Condition not met
--
Compound: CNC[C@H](O)[C@@H](O)[C@H](O)[C@H](O)CO
Study system: E. coli TESEC Mtb DapB
Class assignment: Condition met
--
Compound: CCCN(CCC)CCc1cccc2c1CC(=O)N2 [Ropinirole HCl]
Study system: E. coli TESEC Mtb DapB
Class assignment: Condition met
--
Compound: O=C(O)Cc1cc(I)c(Oc2ccc(O)c(I)c2)c(I)c1
Study system: E. coli TESEC Mtb DapB
Class assignment: Condition not met
